test system: Mycobacterium tuberculosis; test: Antimycobacterial activity against isoniazid/rifampicin-resistant Mycobacterium tuberculosis isolate 11168 after 7 days by microplate alamar blue assay; assay type: functional; settings: isolate 11168, 168 h
The entries below come with measured MIC values attached.
Attribute Measured: MIC

{"columns": ["Compound", "Target System", "Result"],
 "data": [
  ["Cc1ccc2nc(C)c(C(=O)NCCOc3ccc(Cl)cc3)n2c1", "Mycobacterium tuberculosis", "0.025 µg/mL"],
  ["COc1cccc(OCCNC(=O)c2c(C)nc3ccc(C)cn23)c1", "Mycobacterium tuberculosis", "0.029 µg/mL"],
  ["COc1ccc(OCCNC(=O)c2c(C)nc3ccc(C)cn23)cc1", "Mycobacterium tuberculosis", "0.026 µg/mL"],
  ["Cc1ccc2nc(C)c(C(=O)NCCOc3ccccc3)n2c1", "Mycobacterium tuberculosis", "0.03 µg/mL"],
  ["CO[C@H]1/C=C/O[C@@]2(C)Oc3c(C)c(O)c4c(O)c(c(/C=N/N5CCN(C)CC5)c(O)c4c3C2=O)NC(=O)/C(C)=C\\C=C\\[C@H](C)[C@H](O)[C@@H](C)[C@@H](O)[C@@H](C)[C@H](OC(C)=O)[C@@H]1C [RIFAMPIN]", "Mycobacterium tuberculosis", "36.9 µg/mL"],
  ["Cc1ccc2nc(C)c(C(=O)NCCOc3ccc(Br)cc3)n2c1", "Mycobacterium tuberculosis", "0.036 µg/mL"],
  ["Cc1ccc2nc(C)c(C(=O)NCCOc3ccccc3C)n2c1", "Mycobacterium tuberculosis", "0.036 µg/mL"],
  ["NNC(=O)c1ccncc1 [ISONIAZID]", "Mycobacterium tuberculosis", "> 40 µg/mL"],
  ["Cc1cccc(OCCNC(=O)c2c(C)nc3ccc(C)cn23)c1", "Mycobacterium tuberculosis", "0.026 µg/mL"]
]}

Entry source: ChEMBL document CHEMBL3864185
